# assay.summary: E. coli acrAB mutant growth effects, primary screen, E. coli filamentation inducers, strain DRC39, OD650, 48 h (AID 1179);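 note: screen aims at cell division blockers that make cells filament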
# protocol.conditions: E. coli DRC39 delta-acrAB growth, higher = more signal, called active from +8 up or from −8 down
Please enter 1.0 where z-score is greater than or equal to 0.3, and 0.0 where it is lower.

Given the entry C=C(CC1([C@@H](NP(=O)(c2ccccc2)c2ccccc2)[C@H]2C[C@@H]2CCCC)CC1)c1ccccc1 , answer whether its z-score meets or surpasses 0.3.
0.0

Hello, I need to know if COCCOC(=O)N1C(=O)[C@@]2(c3cc(C#CCNC(N)=O)ccc31)[C@H](C(=O)Nc1nc3ccccc3s1)[C@H]1C(=O)O[C@H](c3ccccc3)[C@H](c3ccccc3)N1[C@@H]2c1ccc(OCCO)cc1 has measured z-score not below 0.3. Thanks!
0.0

Could you verify whether the entry C=CCC(OC(C)=O)[C@@H]1[C@@H](N(Cc2ccc(-c3ccccc3)cc2)C(=O)c2ccc(-c3ccccc3)cc2)c2cc(OCCCO)ccc2N1C(=O)Cc1ccc2ccccc2c1 (stereo not given in full) shows z-score of no less than 0.3?
0.0

In plain terms: is recorded z-score at least 0.3 for Cc1ccc(S[C@]2(C(=O)NC3CC3)CC(=O)N(Cc3ccccc3)[C@@H]2c2ccc(CO)cc2I)cc1 ?
1.0

====

# assay.summary: basal S. cerevisiae growth modulation, no modifier, primary screen, OD600, strain BY4716, 24 h, basal condition (AID 1173)
# protocol.conditions: OD600, 24 h, higher = more signal, called active from +8 up or from −8 down
readout.label: z-score
// keep it numeric: no unit symbol after the value

Please report z-score for the following molecule: O=C(CS)NCCCCCCNC(=O)[C@@H]1C[C@@H]2C(=O)NCC(=O)N2[C@@H]1c1cccc(OCCO)c1
-0.419

Quickly give me recorded z-score for O=C1NC(=O)C2C1C=CC(C(O)c1cccs1)N2Nc1ccc(Cl)cc1Cl (stereo not drawn)
-6.97

Answer with the recorded z-score of COC(=O)[C@@]1(Cc2ccc(OC)cc2)[C@H]2c3cc(C(=O)N4CCCC4)n(Cc4ccc(C)c(F)c4F)c3C[C@H]2CN1C(=O)c1ccccc1 only.
1.9

For the molecule C=C(COC)/C(=C/C[C@@H](OC(=O)c1ccncc1)c1ccc(CO)o1)c1cc(C(=O)OC)ccc1OC , report z-score.
-0.439

Retrieve z-score measured for CN(C)CCCCCCNC(=O)[C@H]1C[C@H]2C(=O)N3CCC[C@H]3C(=O)N2[C@H]1c1ccc(O)cc1 and print it.
-0.444

Dear colleague, please send me the reported z-score for C=CCC(OC(C)=O)[C@@H]1[C@@H](N(Cc2cc3ccccc3o2)C(=O)c2cccc3ccccc23)c2cc(OCCCO)ccc2N1C(=O)c1ccc(-c2ccccc2)cc1 (stereo partly drawn) when you can.
-0.356

Given COc1cc2c(cc1OC)CN(C(=O)[C@H]1[C@@H]3C(=O)O[C@@H](c4ccccc4)[C@@H](c4ccccc4)N3[C@@H](c3ccc(O)cc3)[C@]13C(=O)Nc1ccc(C#CCCO)cc13)CC2 , respond with its z-score.
0.966

Please report z-score for the following molecule: COc1ccc(CCNC(=O)[C@@]2(Sc3ccc(C)cc3)CC(=O)N(C(C)C)[C@@H]2c2ccc(CO)cc2I)cc1
-1.77

====

Hi there, I'd appreciate the recorded z-score for every entry that follows.
# assay.summary: PSAC antagonists in infected red cells, primary screen, cell-based, P. falciparum Indochina, OD700, 2 h (AID 1155);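 note: lysis reports solute entry through the parasite surface anion channel PSAC; channel blockers reduce lysis of infected cells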
# protocol.conditions: P. falciparum Indochina infected erythrocytes, osmotic lysis OD700; higher = more signal, called active from +8 up or from −8 down
// response body must contain only the number

Give recorded z-score. COC(=O)[C@@]1(CCS(=O)(=O)c2ccccc2)N=C(c2ccc(OCCCO)cc2)O[C@H]1c1ccccc1CN=[N+]=[N-]
3.74

Assign z-score to the following record: C=CCNC(=O)[C@@H]1[C@H]2C(=O)O[C@H](c3ccccc3)[C@H](c3ccccc3)N2[C@H](c2ccc(O)cc2)[C@@]12C(=O)N(C(=O)OCCOC)c1ccc(C#CCNC(N)=O)cc12
-0.836

Provide only the value of recorded z-score for CCN(CC)c1ccc(N2CC=CC34O[C@@H]5C=CCCOC(=O)C5[C@H]3C(=O)N(CCCCCCO)[C@@H]4C2=O)cc1 (some centres undefined)
0.392

Please look at this compound and report its z-score: CC#CC(=O)Oc1ccccc1C=CC(=O)OCC
1.47

Please report the measured z-score for CC(C)NC(=O)[C@@]1(C)c2ccccc2C(=O)N(Cc2cc(C(F)(F)F)cc(C(F)(F)F)c2)[C@H]1c1ccc(CO)cc1
1.66

Return the recorded z-score value; entry: C=C(COC)C(=O)CC[C@@H](OC(C)=O)c1ccc(CO)o1
-0.47

Query z-score for CN1C(=O)C2C=CC(C(O)C#Cc3ccccc3)N(N3CCCCC3)C2C1=O (centres undefined)
1.09

Please give the documented z-score of C=CCOC(=O)[C@H]1[C@@H]2C(=O)O[C@@H](c3ccccc3)[C@@H](c3ccccc3)N2[C@@H](c2ccc(OCCOC(=O)[C@H]3C[C@H]4C(=O)N[C@@H](CCCCN(C)C)C(=O)N4[C@H]3c3ccc(O)cc3)cc2)[C@]12C(=O)Nc1ccc(I)cc12
1.13

Identify the reported z-score for the following entry. C=CCN1C(=O)[C@]2(O[C@H](CCn3cc([C@H](O)c4ccccc4)nn3)[C@@H]([Si](C)(C)c3ccc(OC)cc3)[C@@H]2C)c2ccccc21
1.02

====

# Tested on: Sonic hedgehog protein (Shh)
# assay.summary: small-molecule binders of Shh protein, primary screen, biochemical, small-molecule microarray, 635/667 nm fluorescence (AID 1151);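 note: Shh protein binding to compounds spotted on small-molecule microarray slides; score combines spot fluorescence intensity with signal-to-noise across triplicate slides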
# protocol.conditions: small-molecule microarray binding, 635 nm fluorescence; higher = more signal
Just so you know, the groups by composite z-score go like this: lo (below 0.4), med (0.4 to below 0.9), hi (0.9 or more)

Please indicate the class for COCCCNC(=O)[C@@H]1c2ccccc2C(=O)N(Cc2ccccc2Cl)[C@H]1c1ccc(CO)cc1 based on its composite z-score.
med

Which class does O=C(c1ccccc1)N1Cc2ccccc2C[C@@]2(COC(c3ccc(OCCCO)cc3)=N2)C1=O fall in?
hi

# bin lookup: classify COC(=O)[C@@]1(Cc2ccccc2)[C@H]2c3cc(C(=O)N(C)C)n(Cc4ccsc4Br)c3C[C@H]2CN1C(=O)c1ccccc1 by its composite z-score
lo

Form field 'band' for CO[C@H]1O[C@H](CO)[C@@H](OC(=O)Nc2cccc(F)c2)[C@H](OC(=O)Nc2ccccc2)[C@@H]1OC(=O)Nc1ccccc1
hi

// bin(item) where item = C[N+](C)(C)CCCC[C@@H]1NC(=O)[C@H]2C[C@@H](C(=O)NCCCCCCNC(=O)CS)[C@@H](c3cccc(OCCO)c3)N2C1=O
lo

Hi there! Could you help me figure out the category for CC(C)NC(=O)[C@@]1(c2ccc([N+](=O)[O-])cc2)CC(=O)N(C2CCCCC2)[C@@H]1c1ccc(CO)cc1I please?
lo

Where would COC(=O)[C@]1(CCC(=O)OC(C)(C)C)N=C(c2ccc(OCCCO)cc2)O[C@@H]1c1ccccc1CN=[N+]=[N-] land among the classes by reported composite z-score?
med

Hi there! Could you help me figure out the category for C=C(/C(=C/C[C@H](OC(C)=O)c1ccc(CO)o1)c1cc(C(=O)OC)ccc1OC)C(C)C please?
hi

Pick a category. Item: CCCCCN1CC=CC23O[C@@H]4/C=C\CCC(C)OC(=O)C4[C@H]2C(=O)N(C(C)CO)[C@@H]3C1=O (stereo partly drawn)
hi

Quick check: band for CO[C@H]1O[C@H](CO)[C@@H](OC(=O)Nc2ccc(C(F)(F)F)cc2)[C@H](OC(=O)Nc2ccc3c(c2)OCO3)[C@@H]1OC(=O)Nc1ccc2c(c1)OCO2
med

Band of C=C[C@H](CO)NS(=O)(=O)c1ccc(Br)cc1 ?
lo

====

# assay.summary: P. aeruginosa biofilm formation inhibitors, primary screen, PAO1 strain, BacTiter-Glo luminescence, LB-PBS (AID 1144)
# protocol.conditions: 12 h, higher = more signal
readout.label: z-score
Enter the number alone.

State its z-score: NC(=O)N1C(=O)C2C(C1=O)C1C=C(c3ccc(CO)cc3)C2C(c2cccs2)N1Cc1cccc(OC(F)(F)F)c1 (stereo unspecified)
0.945

Read the entry NC(=O)NCC#Cc1ccc2c(c1)[C@]1(C(=O)N2)[C@H](c2ccc(O)cc2)N2[C@H](c3ccccc3)[C@H](c3ccccc3)OC(=O)[C@H]2[C@@H]1C(=O)O and write its reported z-score.
-0.248

Supply recorded z-score for COCCOC(=O)N1C(=O)[C@@]2(c3cc(C#Cc4ccc(OC)cc4)ccc31)[C@H](c1ccc(O)cc1)N1[C@H](c3ccccc3)[C@H](c3ccccc3)OC(=O)[C@H]1[C@@H]2C(=O)N1CCc2cc(OC)c(OC)cc2C1 here.
-1.57

Note down z-score recorded for CC1(C)C2C=C(C(O)C3C=CC4C(=O)NC(=O)C4N3Nc3ccc(Cl)cc3Cl)C[C@@H]1C2 (stereo partly specified)
-0.418

Look up z-score of COC(=O)[C@@]1(CCC(=O)OC(C)(C)C)N=C(c2ccc(OCCCO)cc2)O[C@H]1c1ccccc1N=[N+]=[N-] and report it.
-0.656

Query z-score for CC(C)NC(=O)[C@@]1(C)c2ccccc2C(=O)N(Cc2cc(C(F)(F)F)cc(C(F)(F)F)c2)[C@H]1c1ccc(CO)cc1
1.03

Please look at this molecule and report its z-score: C=CCN1C(=O)[C@@]2(CC=C)N=C(c3ccc(OCCCO)cc3)O[C@H]2c2ccccc21
-0.776

Query z-score for O=C1c2ccccc2[C@](Cc2ccccc2I)(C(=O)NCC(F)(F)F)[C@H](c2ccc(CO)cc2)N1Cc1ccccc1Cl
-1.28

Provide measured z-score value, entry: CCc1cccc(NC(=O)O[C@H]2[C@H](OC(=O)Nc3ccccc3-c3ccccc3)[C@@H](OC(=O)Nc3ccccc3-c3ccccc3)[C@@H](OC)O[C@@H]2CO)c1
-0.0932

For the molecule O=C(NC1CC1)[C@@H]1c2ccccc2C(=O)N(Cc2ccccc2Cl)[C@H]1c1ccc(CO)cc1 , give its measured z-score value.
-0.764

Answer with the recorded z-score for the molecule listed here: CN(C)C(=O)[C@@]1(CCS(=O)(=O)c2ccccc2)COC(c2ccc(OCCCO)cc2)=N1
-0.26
